Value source: patent US20240217946A1

- ASSAY INFO: Pharmacokinetics and absolute bioavailability in rats (LC-MS/MS)
- Type: in vivo
- MEASUREMENT PARAMETERS: male, SD, rat, plasma, oral, 12.5 mg/kg, single intragastric 12.5 mg/kg, 0.08 h, read-out: Plasma concentration, Mean
Listed here are molecules together with their documented concentration at 0.08 h.
PROPERTY NAME: concentration at 0.08 h (ng/mL)

{"columns": ["COMPOUND STRING", "PROPERTY NAME", "QUANTITATIVE RESULT"],
 "data": [
  ["NC(=O)/C=C/c1cc2c(c(C(F)(F)F)c1)OCO2", "concentration at 0.08 h", 191],
  ["CC(C)CNC(=O)/C=C/c1cc2c(c(C(F)(F)F)c1)OCO2", "concentration at 0.08 h", 118]
]}
